Item-by-item account of abundance fitness
B1: Connector enhancer of kinase suppressor of ras 2, residues 9 to 71; numbered along this chain, Q8WXI2 (parent)
chain: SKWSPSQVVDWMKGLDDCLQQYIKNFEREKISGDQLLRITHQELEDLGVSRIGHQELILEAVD

Variants of: B1
Experiment: abundance fitness (aPCA) (normalised: wild type 0, dead -1); higher = more abundant; growth selection in yeast, the domain comes from the species named
Settings: Homo sapiens

// below: answered variants
variant.string | abundance fitness
K30A | -0.069
E45L | -0.045
L47H | -0.785
T40D | -0.327

# context switch: different variant, same abundance fitness
Looking up `Q55K` , I found its abundance fitness recorded as -0.051

The measurements presented in this section are drawn from the Human Domainome abundance scans (Beltran et al. 2025).
